Read-out: Interleukin-8 (IL8), CXCL8 (gene 3576)
Test: BSK_SAg_IL8: BioMAP Diversity Plus: SAg Assay for Interleukin-8 (IL8) Biomarker Activity (AID 2283094)
Conditions: primary human HUVEC with PBMC; actives raise or lower the signal
Active and inactive are the calls of the source. Rule for the calls: active = hit-call score of the fitted dose curve at least 0.9, where 1 is the maximum; inactive = score below 0.9.
Classes used: active, inactive

[[record]]
molecule_smiles = "c1ccc2c(c1)sc1ccccc12"
label_value = "inactive"

[[record]]
molecule_smiles = "CCOP(=S)(OCC)SCSCC"
label_value = "inactive"

[[record]]
molecule_smiles = "COP(=O)(O)OC"
label_value = "inactive"

[[record]]
molecule_smiles = "COP(=O)(CCC(=O)NCO)OC"
label_value = "inactive"

[[record]]
molecule_smiles = "Cc1ccc([N+](=O)[O-])cc1C"
label_value = "inactive"

[[record]]
molecule_smiles = "O=[N+]([O-])c1ccc(Cl)c(Cl)c1"
label_value = "inactive"

[[record]]
molecule_smiles = "C=CC(=O)OCC(CC)(COC(=O)C=C)COC(=O)C=C"
label_value = "active"

[[record]]
molecule_smiles = "CC(C)(C)c1ccccc1OP(=O)(Oc1ccccc1)Oc1ccccc1"
label_value = "active"

